- assay target: T1, human CD24 (human, UniProt P25063 27-59, heavily glycosylated, GPI-anchored (as described in the background))
- T1 construct: whole, on cells; Target of all cell-based FACS assays; also called hCD24; Cluster of differentiation 24
- T1 chain (looked up): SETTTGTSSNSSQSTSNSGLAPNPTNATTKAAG
- assay overview: FACS, 293F-hCD24 cells
assay endpoint: FACS MFI
Just the number.

Problem: Sample 73H5-1G2 (antibody, V domains shown, mouse monoclonal antibody) VH: QVQLKQSGPGLVQPSQSLSITCTVSGFSLTNYGVHWIRQSPGKGLEWLGVIWRGGSTDYNAAFMSRLSITKDNSKSQVFFQMNSLQAADTAIYYCANNYGYDCFAYWGQGTLVTVSA VL: DVQITQSPSYLAASPGETITINCRASKSIIKYLAWYQEKPGKTNKLLIYSGSTLQSGIPSRFSGSGSGTDFTLTITSLEPEDFAMYYCQQHNEYPLTFGAGTRLELK — what was its FACS MFI?
Result: 20100
